Reported EC50 values for the following binders.
Target: T1, human CD123 (IL3RA) on cells (human, UniProt P26951 19-378)
T1 construct: also called CD123 transfected HEK293; THP-1
T1 sequence (P26951 19-378): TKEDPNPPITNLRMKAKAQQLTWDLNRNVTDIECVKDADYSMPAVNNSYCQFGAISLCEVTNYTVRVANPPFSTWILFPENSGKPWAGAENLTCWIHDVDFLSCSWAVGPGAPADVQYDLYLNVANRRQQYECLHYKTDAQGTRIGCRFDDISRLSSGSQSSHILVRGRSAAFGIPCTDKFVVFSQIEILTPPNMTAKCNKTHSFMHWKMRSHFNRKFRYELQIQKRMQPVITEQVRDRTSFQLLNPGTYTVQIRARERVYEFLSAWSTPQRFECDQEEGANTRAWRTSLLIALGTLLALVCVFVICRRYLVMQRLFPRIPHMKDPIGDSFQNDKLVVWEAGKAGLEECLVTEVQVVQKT
Assay: flow cytometry, CD123 transfected HEK293, hybridoma supernatant
Measured Property: EC50 (ng/mL)

>>> readout_number("2B8-F3 anti-CD123 rat IgG (hybridoma supernatant) (antibody, V domains shown, rat IgG; also called BFX - 2B8) VH: EVQLVESGGGLVQPGRSLKLSCAASGFTFSDYNMAWVRQAPKKGLEWVATILYDGGRTYYRGSVKGRFTISRDNAKSTLYLRMDSLRSEDTATYYCATHSRGTDYFDYWGQGVMVTVSS VL: EIVLTQSPTSMTASPGEQVTITCRASSSINYMHWYQQKPGASPRPWIYETSKLASGVPDRFSGSASGTSYSLTINNMEAEDAATYYCQQWNYPSWTFGGGTKLELK")
5.5
>>> readout_number("9B8-G6 anti-CD123 rat IgG (hybridoma supernatant) (antibody, V domains shown, rat IgG; also called BFX - 9B8) VH: EVKLQESGPSLVQSSQTLSLTCTVSGFSLTSYHIHWVRQPPGKGLEWMGVMWSDGDTSYSSALKSRLSISRDTSQSQVFLKMNSLQTEDTATYYCARGDYSSYIYLWFAYWGQGTLVTVSS VL: DIVMTQSPSSLAVSAGETVTINCKSSQSFLSSGDERNYVAWYQHKPGQSPKLLIYWASTRHSGVPDRFIGSGSGTDFTLTISSVQAEDLAIYYCQQYYDTPLTFGSGTKLEIK")
1.2
>>> readout_number("1E1-G5 anti-CD123 rat IgG (hybridoma supernatant) (antibody, V domains shown, rat IgG; also called BFX - 1E1) VH: QVQLQESGPTLVKPGDSVKMSCKAFGYTFTDHIIHWVKQSHGKSLEWIGYINPYSGGTNYNEKFKSKATLTVDKSSSTAYMEFSRLTSEDSAICYCALNYGSYYAMDAWGQGTSVTVSS VL: DIQMTQSPASLSASLGQTVTIECRPSEDIYSNLAWFQQKPGSSPQLLIYDANNLADGVPSRFSGSGSGTQYSLKINSLQSEDVASYFCQQYNKYPYTFGTGTKLELK")
2.2
